# target.desc: UniProtKB P19327
# Sequence (P19327 whole entry): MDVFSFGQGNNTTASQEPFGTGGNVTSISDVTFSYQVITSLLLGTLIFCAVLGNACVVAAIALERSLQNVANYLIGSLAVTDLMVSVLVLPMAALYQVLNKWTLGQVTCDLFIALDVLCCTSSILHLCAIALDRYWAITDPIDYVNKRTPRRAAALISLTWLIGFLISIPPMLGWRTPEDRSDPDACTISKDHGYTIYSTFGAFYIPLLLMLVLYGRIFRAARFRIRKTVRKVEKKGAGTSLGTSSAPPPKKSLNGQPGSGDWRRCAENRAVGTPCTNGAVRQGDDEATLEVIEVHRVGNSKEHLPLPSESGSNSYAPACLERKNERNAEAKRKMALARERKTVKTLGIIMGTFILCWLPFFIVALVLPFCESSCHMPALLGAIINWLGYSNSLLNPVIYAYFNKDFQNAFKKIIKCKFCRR
pKi: −log10 of the molar value.
Label label 0 if pKi falls below 7; label label 1 in every other case.

{"compound": "Cc1ccccc1N1CCN(CCCCN2CC(=O)N3CCCCC3C2=O)CC1 (stereo not given)", "target.desc": "UniProtKB P19327", "classification": "label 1"}
{"compound": "CCCNC(=O)c1ccccc1N1CCN(CCCN2CC(=O)N3CCCCC3C2=O)CC1 (stereo not given)", "target.desc": "UniProtKB P19327", "classification": "label 0"}
{"compound": "O=C1C2CCCCN2C(=O)N1CCCCN1CCN(c2ccccc2Oc2ccccc2)CC1 (stereo not given)", "target.desc": "UniProtKB P19327", "classification": "label 1"}
{"compound": "CC(C)C(=O)Nc1cccc(N2CCN(CCCCN3C(=O)C4CCCN4C3=O)CC2)c1.Cl (stereo not given)", "target.desc": "UniProtKB P19327", "classification": "label 0"}
{"compound": "O=C1C2CCCCN2C(=O)N1CCCCN1CCN(c2ccccc2Br)CC1 (stereo not given)", "target.desc": "UniProtKB P19327", "classification": "label 1"}
{"compound": "O=C1C2CCCCN2C(=O)CN1CCCN1CCN(c2cccc(C(F)(F)F)c2)CC1 (stereo not given)", "target.desc": "UniProtKB P19327", "classification": "label 0"}
{"compound": "CC(C)C(=O)Nc1cccc(N2CCN(CCCN3CC(=O)N4CCCC4C3=O)CC2)c1 (stereo not given)", "target.desc": "UniProtKB P19327", "classification": "label 0"}
{"compound": "CCCNC(=O)c1ccccc1N1CCN(CCCCN2C(=O)C3CCCCN3C2=O)CC1 (stereo not given)", "target.desc": "UniProtKB P19327", "classification": "label 0"}
{"compound": "CCCNC(=O)c1ccccc1N1CCN(CCCN2C(=O)C3CCCN3C2=O)CC1 (stereo not given)", "target.desc": "UniProtKB P19327", "classification": "label 0"}
